# Test system: BDF1 mice, L1210 6-MP/6-TG resistant leukemia ip, survival T/C
# MEASUREMENT_DESCRIPTION: NCI In Vivo Anticancer Drug Screen. Data for tumor model L1210 Leukemia resistant to 6-MP and 6-Thioguanine; NSC 755, NSC 752 (intraperitoneal) in B6D2F1 (BDF1) mice
# CONDITION: endpoint: mean survival time; dose: 300.0 mg/kg/injection; schedule: Q01DX Z (ip); vehicle: carboxymethylcellulose (CMC); higher = longer survival
Toxic doses and inconclusive results are not listed.
METRIC_NAME: T/C

MOLECULE: CC(=O)Nc1ccc2nc3ccc(NC(C)=O)cc3[n+](-c3ccccc3)c2c1
T/C: 122 % of control

MOLECULE: C[C@H]1C(=O)O[C@@H]2CCN3CC=C(COC(=O)[C@](C)(O)[C@@]1(C)O)[C@H]23
T/C: 104 % of control

MOLECULE: Clc1ncnc2nc[nH]c12
T/C: 88 % of control

Let's switch to this molecule now.
Form field T/C, entry OCC1OC(n2cnc3c(=S)nc[nH]c32)C(O)C1O (centres undefined) : 92 % of control

====

# Tested on: BDF1 mice, L1210 6-MP/6-TG resistant leukemia ip, survival T/C
# MEASUREMENT_DESCRIPTION: NCI In Vivo Anticancer Drug Screen. Data for tumor model L1210 Leukemia resistant to 6-MP and 6-Thioguanine; NSC 755, NSC 752 (intraperitoneal) in B6D2F1 (BDF1) mice
# CONDITION: endpoint: mean survival time; dose: 100.0 mg/kg/injection; schedule: Q01DX Z (ip); vehicle: carboxymethylcellulose (CMC)
# Protocol: The antitumor activity of compounds was measured in mice bearing transplantable tumors. Survival or tumor size were measured and the results are expressed as the measurement made in the treated group (T) divided by the measurement made in the vehicle treated control group (C). The tumor model used in this assay is L1210 Leukemia resistant to 6-MP and 6-Thioguanine; NSC 755, NSC 752 (intraperitoneal) in B6D2F1 (BDF1) mice
Inconclusive results and toxic doses are left out. The calls were made as follows: active = survival T/C of 150% or more; inactive = T/C below 125% in these data.
Lab note: assign the record to one of Y for active, N for inactive

MOLECULE: CC(=O)Nc1ccc2nc3ccc(NC(C)=O)cc3[n+](-c3ccccc3)c2c1
CLASS_LABEL: N

Tell me the assay call for O=c1[nH]c(=O)n(C2CC(O)C(CO)O2)cc1I (stereo unspecified) please.
Y

Tell me the assay call for `Cn1c(O)c(N=NC(N)=S)c2ccccc21` please.
N

Tell me the assay call for `N#CCSc1ncnc2nc[nH]c12` please.
N

Tell me the assay call for `Clc1ncnc2nc[nH]c12` please.
N

Tell me the assay call for `COCCCNS(=O)(=O)c1ncnc2nc[nH]c12` please.
N

Tell me the assay call for `CCn1cnc2c(=S)nc[nH]c21` please.
N

Tell me the assay call for CC(=O)OCC1OC(n2cnc3c(=S)nc[nH]c32)C(OC(C)=O)C1OC(C)=O (stereo unspecified) please.
N

Tell me the assay call for `S=c1nc[nH]c2nc[nH]c12` please.
N

Tell me the assay call for `CN(C)C(=S)N=Nc1c(O)[nH]c2ccccc12` please.
N

Tell me the assay call for `Cn1cnc2c(SCc3ccccc3)ncnc21` please.
N

====

# Tested on: BDF1 mice, L1210 6-MP/6-TG resistant leukemia ip, survival T/C
# MEASUREMENT_DESCRIPTION: NCI In Vivo Anticancer Drug Screen. Data for tumor model L1210 Leukemia resistant to 6-MP and 6-Thioguanine; NSC 755, NSC 752 (intraperitoneal) in B6D2F1 (BDF1) mice
# CONDITION: endpoint: mean survival time; dose: 40.0 mg/kg/injection; schedule: Q01DX Z (ip); vehicle: carboxymethylcellulose (CMC); higher = longer survival
Toxic doses and inconclusive results are not listed.
Consider the following compounds; for each one, report its T/C.

Past entries and their recorded results:
COMPOUND: O=c1[nH]c(=O)n(C2CC(O)C(CO)O2)cc1I (centres undefined)
VALUE_MEASURED: 87 % of control
//
COMPOUND: O=c1[nH]c(=O)n(C2CC(O)C(CO)O2)cc1Br (centres undefined)
VALUE_MEASURED: 102 % of control

For each listed entry, give its T/C.
1. CCC(=O)OCC1OC(n2cnc3c(=S)nc(N)[nH]c32)C(OC(=O)CC)C1OC(=O)CC (centres undefined)
2. COc1cc([C@@H]2c3cc4c(cc3[C@H](O)[C@H]3COC(=O)[C@@H]23)OCO4)cc(OC)c1OC

["103 % of control", "101 % of control"]
